# Tested on: MeWo (human melanoma)
# assaySummary: Resazurin cell viability assay, melanoma
# Type: cell-based
# runParameters: IC50 HaCaT / IC50 MeWo, 96 h, mean ± SEM (Table S3)
observedProperty: Selectivity Index MeWo
// no unit, no text: just the number

Examples with answers:
- compound: "Nc1ccn([C@@H]2O[C@H](CO)[C@@H](O)C2(F)F)c(=O)n1 [Gemcitabine]"
  Selectivity Index MeWo: 5.1
- compound: "CCN(CC)CCNC(=O)c1c(C)[nH]c(/C=C2\\C(=O)Nc3ccc(F)cc32)c1C [Sunitinib]"
  Selectivity Index MeWo: 1.5

Q: GET /values?readout=Selectivity Index MeWo&item= CC(=O)O[C@H]1C(=O)[C@@]2(C)[C@H]([C@H](OC(=O)c3ccccc3)[C@]3(O)C[C@H](OC(=O)[C@H](O)[C@@H](NC(=O)c4ccccc4)c4ccccc4)C(C)=C1C3(C)C)[C@]1(OC(C)=O)CO[C@@H]1C[C@@H]2O [Paclitaxel]
A: 0.5

Q: GET /values?readout=Selectivity Index MeWo&item= N.N.O=C([O-])C1(C(=O)[O-])CCC1.[Pt+2] [Carboplatin]
A: 0.6

Q: GET /values?readout=Selectivity Index MeWo&item= COc1cccc2c1C(=O)c1c(O)c3c(c(O)c1C2=O)C[C@@](O)(C(=O)CO)C[C@@H]3O[C@H]1C[C@H](N)[C@H](O)[C@H](C)O1 [Doxorubicin]
A: 0.6

Q: GET /values?readout=Selectivity Index MeWo&item= O=c1[nH]cc(F)c(=O)[nH]1 [5-Fluorouracil]
A: 0.3

Q: GET /values?readout=Selectivity Index MeWo&item= N.N.[Cl][Pt][Cl] [Cisplatin]
A: 1.0
